tested on: Salmonella typhimurium; experiment: Genotoxicity against Salmonella typhimurium TA1535/pSK1002 assessed as induction ratio at 2.5 mg/ml by umuC assay in presence of S9 fraction; format: toxicity, organism-based; settings: salmonella enterica subsp. enterica serovar typhimurium

{"item smiles": "Cn1nnnc1SCC(=O)N/N=C/c1ccccc1[N+](=O)[O-]", "Ratio": 1.014}
{"item smiles": "Cn1nnnc1SCC(=O)N/N=C/c1ccccc1F", "Ratio": 0.352}
{"item smiles": "COc1ccc(/C=N/NC(=O)CSc2nnnn2C)cc1", "Ratio": 0.681}
{"item smiles": "Cn1nnnc1SCC(=O)N/N=C/c1ccc(O)cc1", "Ratio": 0.657}
{"item smiles": "CN(C)c1ccc(/C=N/NC(=O)CSc2nnnn2C)cc1", "Ratio": 0.598}

---

A collection of compounds and their measured fold change (FC)
test system: Salmonella typhimurium; test: Genotoxicity against Salmonella typhimurium TA98 assessed as fold increase in revertants at 0.625 mg/ml after 90 mins by Ames MPF test in presence of S9 fraction relative to baseline; type: toxicity, organism-based; conditions: salmonella enterica subsp. enterica serovar typhimurium, s9, 1.5 h

{"item smiles": "Cn1nnnc1SCC(=O)N/N=C/c1ccc(O)cc1", "fold change (FC)": 0.32}
{"item smiles": "Cn1nnnc1SCC(=O)N/N=C/c1ccccc1[N+](=O)[O-]", "fold change (FC)": 1.78}
{"item smiles": "COc1ccc(/C=N/NC(=O)CSc2nnnn2C)cc1", "fold change (FC)": 0.32}
{"item smiles": "Cn1nnnc1SCC(=O)N/N=C/c1ccccc1F", "fold change (FC)": 1}
{"item smiles": "CN(C)c1ccc(/C=N/NC(=O)CSc2nnnn2C)cc1", "fold change (FC)": 1}

---

system: Salmonella typhimurium; assay: Genotoxicity against Salmonella typhimurium TA100 assessed as fold increase in revertants at 1.25 mg/ml after 90 mins by Ames MPF test in presence of S9 fraction relative to baseline; format: toxicity, organism-based; conditions: salmonella enterica subsp. enterica serovar typhimurium, s9, 1.5 h
A collection of molecules and their measured fold change (FC)
outcome measure: fold change (FC)

{"item smiles": "CN(C)c1ccc(/C=N/NC(=O)CSc2nnnn2C)cc1", "result": 0.26}
{"item smiles": "COc1ccc(/C=N/NC(=O)CSc2nnnn2C)cc1", "result": 0.81}
{"item smiles": "Cn1nnnc1SCC(=O)N/N=C/c1ccccc1F", "result": 0.88}
{"item smiles": "Cn1nnnc1SCC(=O)N/N=C/c1ccccc1[N+](=O)[O-]", "result": 1.93}
{"item smiles": "Cn1nnnc1SCC(=O)N/N=C/c1ccc(O)cc1", "result": 0.59}

---

A collection of compounds and their measured IC50
system: NIH3T3; test: Cytotoxicity against mouse NIH/3T3 cells after 24 hrs by XTT assay; format: cell-based; conditions: NIH3T3, 24 h
outcome measure: IC50 (µM)

{"item smiles": "Cn1nnnc1SCC(=O)N/N=C/c1ccc(C(F)(F)F)cc1", "assayed system": "NIH3T3", "units label": "µM", "bound operator": ">", "result": 10000}
{"item smiles": "Cn1nnnc1SCC(=O)N/N=C/c1ccccc1Cl", "assayed system": "NIH3T3", "units label": "µM", "bound operator": ">", "result": 10000}
{"item smiles": "Cn1nnnc1SCC(=O)N/N=C/c1cccc(O)c1", "assayed system": "NIH3T3", "units label": "µM", "bound operator": "=", "result": 3160}
{"item smiles": "C/C(=N\\NC(=O)CSc1nnnn1C)c1ccc(Cl)cc1Cl", "assayed system": "NIH3T3", "units label": "µM", "bound operator": "=", "result": 1000}
{"item smiles": "Cn1nnnc1SCC(=O)N/N=C/c1c(Cl)cccc1Cl", "assayed system": "NIH3T3", "units label": "µM", "bound operator": ">", "result": 10000}
{"item smiles": "Cn1nnnc1SCC(=O)N/N=C/c1ccc(Cl)cc1Cl", "assayed system": "NIH3T3", "units label": "µM", "bound operator": "=", "result": 2140}
{"item smiles": "Cn1nnnc1SCC(=O)N/N=C/c1ccccc1F", "assayed system": "NIH3T3", "units label": "µM", "bound operator": "=", "result": 2000}
{"item smiles": "CN(C)c1ccc(/C=N/NC(=O)CSc2nnnn2C)cc1", "assayed system": "NIH3T3", "units label": "µM", "bound operator": "=", "result": 316}
{"item smiles": "Cc1cccc(/C=N/NC(=O)CSc2nnnn2C)c1", "assayed system": "NIH3T3", "units label": "µM", "bound operator": "=", "result": 6250}
{"item smiles": "COc1ccccc1/C=N/NC(=O)CSc1nnnn1C", "assayed system": "NIH3T3", "units label": "µM", "bound operator": "=", "result": 3160}
{"item smiles": "Cn1nnnc1SCC(=O)N/N=C/c1ccc(O)cc1", "assayed system": "NIH3T3", "units label": "µM", "bound operator": "=", "result": 632}
{"item smiles": "CC(C)c1ccc(/C=N/NC(=O)CSc2nnnn2C)cc1", "assayed system": "NIH3T3", "units label": "µM", "bound operator": "=", "result": 1200}
{"item smiles": "C/C(=N\\NC(=O)CSc1nnnn1C)c1cc(Cl)ccc1Cl", "assayed system": "NIH3T3", "units label": "µM", "bound operator": "=", "result": 1000}
{"item smiles": "Cn1nnnc1SCC(=O)N/N=C/c1ccccc1[N+](=O)[O-]", "assayed system": "NIH3T3", "units label": "µM", "bound operator": "=", "result": 2020}
{"item smiles": "Cn1nnnc1SCC(=O)N/N=C/c1ccc(F)cc1", "assayed system": "NIH3T3", "units label": "µM", "bound operator": "=", "result": 10000}
{"item smiles": "C/C(=N\\NC(=O)CSc1nnnn1C)c1cccc(Cl)c1", "assayed system": "NIH3T3", "units label": "µM", "bound operator": "=", "result": 3400}
{"item smiles": "Cn1nnnc1SCC(=O)N/N=C/c1ccc(Cl)cc1", "assayed system": "NIH3T3", "units label": "µM", "bound operator": "=", "result": 2100}
{"item smiles": "Cc1ccc(/C=N/NC(=O)CSc2nnnn2C)cc1", "assayed system": "NIH3T3", "units label": "µM", "bound operator": "=", "result": 3160}
{"item smiles": "COc1cccc(/C=N/NC(=O)CSc2nnnn2C)c1", "assayed system": "NIH3T3", "units label": "µM", "bound operator": "=", "result": 600}
{"item smiles": "COc1ccc(/C=N/NC(=O)CSc2nnnn2C)cc1", "assayed system": "NIH3T3", "units label": "µM", "bound operator": ">", "result": 10000}
{"item smiles": "Cn1nnnc1SCC(=O)N/N=C/c1cccc(Cl)c1", "assayed system": "NIH3T3", "units label": "µM", "bound operator": "=", "result": 7500}

---

tested on: A549; assay: Cytotoxicity against human A549 cells after 24 hrs by XTT assay; assay type: functional, cell-based; settings: A549, 24 h

{"item smiles": "Cn1nnnc1SCC(=O)N/N=C/c1ccccc1O", "units label": "mM", "bound operator": ">", "IC50": 10}
{"item smiles": "Cn1nnnc1SCC(=O)N/N=C/c1ccc(Br)cc1", "units label": "mM", "bound operator": ">", "IC50": 10}
{"item smiles": "Cn1nnnc1SCC(=O)N/N=C/c1cccc(Cl)c1", "units label": "mM", "bound operator": "=", "IC50": 7.5}
{"item smiles": "Cn1nnnc1SCC(=O)N/N=C/c1ccc(Cl)cc1Cl", "units label": "mM", "bound operator": "=", "IC50": 0.5}
{"item smiles": "Cn1nnnc1SCC(=O)N/N=C/c1cccc(Cl)c1Cl", "units label": "mM", "bound operator": "=", "IC50": 0.632}
{"item smiles": "Cn1nnnc1SCC(=O)N/N=C/c1ccccc1Br", "units label": "mM", "bound operator": "=", "IC50": 2}
{"item smiles": "COc1cccc(/C=N/NC(=O)CSc2nnnn2C)c1", "units label": "mM", "bound operator": ">", "IC50": 10}
{"item smiles": "Cn1nnnc1SCC(=O)N/N=C/c1ccccc1", "units label": "mM", "bound operator": "=", "IC50": 3.16}
{"item smiles": "Cn1nnnc1SCC(=O)N/N=C/c1ccc(C(F)(F)F)cc1", "units label": "mM", "bound operator": "=", "IC50": 6.32}
{"item smiles": "COc1ccccc1/C=N/NC(=O)CSc1nnnn1C", "units label": "mM", "bound operator": "=", "IC50": 7}

---

A collection of compounds and their measured pIC50
system: A549; test: Cytotoxicity against human A549 cells after 24 hrs by XTT assay; assay type: functional, cell-based; conditions: A549, 24 h
pIC50: −log10 of the molar value.

{"item smiles": "C/C(=N\\NC(=O)CSc1nnnn1C)c1cccc(Cl)c1", "pIC50": "< 2.00"}
{"item smiles": "COc1ccc(/C=N/NC(=O)CSc2nnnn2C)cc1", "pIC50": "< 2.00"}
{"item smiles": "Cc1ccccc1/C=N/NC(=O)CSc1nnnn1C", "pIC50": "< 2.00"}
